- tested target: T1, factor VIIIa A1/A3C1C2 dimer, Glu1984Val (human, UniProt P00451 20-391; P00451 1709-2351)
- T1 sequence 1: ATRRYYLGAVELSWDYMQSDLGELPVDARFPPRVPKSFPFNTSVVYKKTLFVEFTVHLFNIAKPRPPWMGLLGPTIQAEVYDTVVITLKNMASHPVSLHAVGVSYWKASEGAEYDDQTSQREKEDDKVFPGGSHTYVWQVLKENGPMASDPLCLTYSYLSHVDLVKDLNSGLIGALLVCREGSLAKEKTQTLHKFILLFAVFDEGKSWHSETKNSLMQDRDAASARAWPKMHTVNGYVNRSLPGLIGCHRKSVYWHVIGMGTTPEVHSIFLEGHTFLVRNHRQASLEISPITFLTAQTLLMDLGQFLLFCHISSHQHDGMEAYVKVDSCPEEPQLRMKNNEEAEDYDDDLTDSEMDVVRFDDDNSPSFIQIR
- T1 sequence 2: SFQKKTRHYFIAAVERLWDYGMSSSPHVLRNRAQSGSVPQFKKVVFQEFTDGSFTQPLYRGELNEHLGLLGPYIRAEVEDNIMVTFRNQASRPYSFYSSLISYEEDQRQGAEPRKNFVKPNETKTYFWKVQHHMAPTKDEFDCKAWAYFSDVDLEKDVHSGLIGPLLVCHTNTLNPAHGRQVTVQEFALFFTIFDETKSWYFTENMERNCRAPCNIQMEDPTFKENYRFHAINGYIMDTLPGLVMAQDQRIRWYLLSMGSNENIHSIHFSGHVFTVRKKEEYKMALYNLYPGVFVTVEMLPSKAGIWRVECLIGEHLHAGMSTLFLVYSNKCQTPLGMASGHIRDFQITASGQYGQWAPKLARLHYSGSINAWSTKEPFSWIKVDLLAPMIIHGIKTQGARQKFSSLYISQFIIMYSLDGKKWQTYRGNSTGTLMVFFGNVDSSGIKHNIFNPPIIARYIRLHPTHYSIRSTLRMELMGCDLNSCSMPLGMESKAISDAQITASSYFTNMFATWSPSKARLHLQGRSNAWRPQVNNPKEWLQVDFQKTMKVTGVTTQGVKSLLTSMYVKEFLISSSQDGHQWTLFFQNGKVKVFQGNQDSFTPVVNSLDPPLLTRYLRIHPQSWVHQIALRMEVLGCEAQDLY
- run description: cell-based or functional assay
readout type: Decay rate relative to wild type, Factor VIIIa (1.5 nM, factor IXa absent)

Example results:
factor VIIIa A2 subunit, wild type (other) SVAKKHPKTWVHYIAAEEEDWDYAPLVLAPDDRSYKSQYLNNGPQRIGRKYKKVRFMAYTDETFKTREAIQHESGILGPLLYGEVGDTLLIIFKNQASRPYNIYPHGITDVRPLYSRRLPKGVKHLKDFPILPGEIFKYKWTVTVEDGPTKSDPRCLTRYYSSFVNMERDLASGLIGPLLICYKESVDQRGNQIMSDKRNVILFSVFDENRSWYLTENIQRFLPNPAGVQLEDPEFQASNIMHSINGYVFDSLQLSVCLHEVAYWYILSIGAQTDFLSVFFSGYTFKHKMVYEDTLTLFPFSGETVFMSMENPGLWILGCHNSDFRNRGMTALLKVSSCDKNTGDYYEDSYEDISAYLLSKNNAIEPR : 0.34 relative to wild type
factor VIIIa A2 subunit, Glu665Val (other) SVAKKHPKTWVHYIAAEEEDWDYAPLVLAPDDRSYKSQYLNNGPQRIGRKYKKVRFMAYTDETFKTREAIQHESGILGPLLYGEVGDTLLIIFKNQASRPYNIYPHGITDVRPLYSRRLPKGVKHLKDFPILPGEIFKYKWTVTVEDGPTKSDPRCLTRYYSSFVNMERDLASGLIGPLLICYKESVDQRGNQIMSDKRNVILFSVFDENRSWYLTENIQRFLPNPAGVQLEDPEFQASNIMHSINGYVFDSLQLSVCLHEVAYWYILSIGAQTDFLSVFFSGYTFKHKMVYVDTLTLFPFSGETVFMSMENPGLWILGCHNSDFRNRGMTALLKVSSCDKNTGDYYEDSYEDISAYLLSKNNAIEPR : 0.48 relative to wild type
factor VIIIa A2 subunit, D519V and E665V (other) SVAKKHPKTWVHYIAAEEEDWDYAPLVLAPDDRSYKSQYLNNGPQRIGRKYKKVRFMAYTDETFKTREAIQHESGILGPLLYGEVGDTLLIIFKNQASRPYNIYPHGITDVRPLYSRRLPKGVKHLKDFPILPGEIFKYKWTVTVEVGPTKSDPRCLTRYYSSFVNMERDLASGLIGPLLICYKESVDQRGNQIMSDKRNVILFSVFDENRSWYLTENIQRFLPNPAGVQLEDPEFQASNIMHSINGYVFDSLQLSVCLHEVAYWYILSIGAQTDFLSVFFSGYTFKHKMVYVDTLTLFPFSGETVFMSMENPGLWILGCHNSDFRNRGMTALLKVSSCDKNTGDYYEDSYEDISAYLLSKNNAIEPR : 0.16 relative to wild type
factor VIIIa A2 subunit, Asp519Ala (other) SVAKKHPKTWVHYIAAEEEDWDYAPLVLAPDDRSYKSQYLNNGPQRIGRKYKKVRFMAYTDETFKTREAIQHESGILGPLLYGEVGDTLLIIFKNQASRPYNIYPHGITDVRPLYSRRLPKGVKHLKDFPILPGEIFKYKWTVTVEAGPTKSDPRCLTRYYSSFVNMERDLASGLIGPLLICYKESVDQRGNQIMSDKRNVILFSVFDENRSWYLTENIQRFLPNPAGVQLEDPEFQASNIMHSINGYVFDSLQLSVCLHEVAYWYILSIGAQTDFLSVFFSGYTFKHKMVYEDTLTLFPFSGETVFMSMENPGLWILGCHNSDFRNRGMTALLKVSSCDKNTGDYYEDSYEDISAYLLSKNNAIEPR : 0.23 relative to wild type

Give recorded Decay rate relative to wild type, Factor VIIIa (1.5 nM, factor IXa absent). factor VIIIa A2 subunit, Asp519Val (other) SVAKKHPKTWVHYIAAEEEDWDYAPLVLAPDDRSYKSQYLNNGPQRIGRKYKKVRFMAYTDETFKTREAIQHESGILGPLLYGEVGDTLLIIFKNQASRPYNIYPHGITDVRPLYSRRLPKGVKHLKDFPILPGEIFKYKWTVTVEVGPTKSDPRCLTRYYSSFVNMERDLASGLIGPLLICYKESVDQRGNQIMSDKRNVILFSVFDENRSWYLTENIQRFLPNPAGVQLEDPEFQASNIMHSINGYVFDSLQLSVCLHEVAYWYILSIGAQTDFLSVFFSGYTFKHKMVYEDTLTLFPFSGETVFMSMENPGLWILGCHNSDFRNRGMTALLKVSSCDKNTGDYYEDSYEDISAYLLSKNNAIEPR
0.19 relative to wild type
